Target: Cyclin-dependent kinase 4 (Homo sapiens)
Details: at 0.1 µM
Description: GSK_PKIS: CDK4/cyclinD mean inhibition at 0.1 uM [Nanosyn]
Below, each entry is listed with its recorded inhibition.
endpoint: inhibition (%)

compound: Cc1ccc(NC(=O)c2ccoc2)cc1-c1ccc(C(=O)NCC2CC2)cc1
measurement.unit: %
observed.measurement: 0.87

compound: COc1cccc(-n2cnc3c(N/N=C/c4ccncc4)ncnc32)c1
measurement.unit: %
observed.measurement: -6.94

compound: COc1ccc(C2=C(N3CCc4ccccc43)C(=O)NC2=O)cc1
measurement.unit: %
observed.measurement: 3.95

compound: NCc1ccc(-n2c(-c3nonc3N)nc3cnccc32)cc1
measurement.unit: %
observed.measurement: 5.03

compound: Cc1ccc(C(=O)NC(C)C)cc1-c1ccc(C(=O)NCC2CC2)cc1
measurement.unit: %
observed.measurement: -0.49

compound: O=C(Nc1ccc(Oc2ccc3[nH]c(NC(=O)c4ccccc4)nc3c2)cc1)Nc1cc(C(F)(F)F)ccc1F
measurement.unit: %
observed.measurement: 3.17

compound: Fc1ccc(-c2ncn(C3CCNCC3)c2-c2ccnc(Oc3ccc4c(c3)OCO4)n2)cc1
measurement.unit: %
observed.measurement: 1.48

compound: CN(C)CCCNc1nccc(-c2c(-c3ccc(F)cc3)nn3cc(C(F)(F)F)ccc23)n1
measurement.unit: %
observed.measurement: -2.82

compound: CN(C)CCOc1ccc(-c2cc(-c3ccc4c(c3)CCC4=NO)c(-c3ccncc3)o2)cc1
measurement.unit: %
observed.measurement: -0.67

compound: CS(=O)(=O)CCNCc1ccc(-c2ccc3ncnc(Nc4ccc(OCc5ccccc5)c(Br)c4)c3c2)o1
measurement.unit: %
observed.measurement: -1.53

compound: Fc1ccc(-c2ncn(C3CCNCC3)c2-c2ccnc(Oc3ccc(Oc4ccccc4)cc3)n2)cc1
measurement.unit: %
observed.measurement: 4.1

compound: COc1cc2ncn(-c3cc(OCc4cccs4)c(C(N)=O)s3)c2cc1OC
measurement.unit: %
observed.measurement: -2.57

compound: CCN(CC)Cc1ccc(Nc2nccc(-c3cnn4ncccc34)n2)cc1
measurement.unit: %
observed.measurement: 53.8

compound: C[C@@H](Oc1cc(-n2cnc3ccc(OC4CCN(C)CC4)cc32)sc1C(N)=O)c1ccccc1Cl
measurement.unit: %
observed.measurement: -0.83

compound: COc1cc(Nc2ncc3c(C)nc(-c4cccc(C(F)(F)F)c4)n3n2)cc(OC)c1OC
measurement.unit: %
observed.measurement: 1.78

compound: O=C(Nc1n[nH]c2nc(-c3ccc(O)cc3)c(Br)cc12)C1CC1
measurement.unit: %
observed.measurement: 42

compound: COc1cc(Nc2ncc(-c3ccccc3)o2)cc(OC)c1OC
measurement.unit: %
observed.measurement: 0.45

compound: COc1ccc2cc(-c3c(-c4ccncc4)nc(-c4ccc([S+](C)[O-])cc4C)n3C)ccc2c1 (stereo not given)
measurement.unit: %
observed.measurement: 2.2

compound: c1ccc(-c2n[nH]cc2-c2ccnc(-c3ccc(OCCN4CCOCC4)cc3)c2)nc1
measurement.unit: %
observed.measurement: 5.35

compound: COc1ccc2cc(-c3c(-c4ccncc4)nc(-c4ccc(S(C)(=O)=O)cc4C)n3C)ccc2c1
measurement.unit: %
observed.measurement: 3.77

compound: CCc1ccc(Oc2nccc(-c3c(-c4ccc(F)cc4)ncn3C3CCNCC3)n2)cc1
measurement.unit: %
observed.measurement: 1.49

compound: COc1cc2ncn(-c3cc(OCc4ccccc4C(F)(F)F)c(C(C)=O)s3)c2cc1OC
measurement.unit: %
observed.measurement: 1.74

compound: COc1cc(N2CCN(C(C)C)CC2)ccc1Nc1nc(Nc2ccc(F)cc2C(=O)NC[C@@H](O)CO)c2cc[nH]c2n1
measurement.unit: %
observed.measurement: -2.67

compound: NC(=O)c1cc(-c2ccncc2)cc(-c2ccccc2)c1N
measurement.unit: %
observed.measurement: 2.8

compound: Fc1ccc(-c2ncn(CCCN3CCOCC3)c2-c2ccncc2)cc1
measurement.unit: %
observed.measurement: 0.02

compound: O=C(NCC1CC1)c1ccc(-c2cccc(C(=O)NC3CC3)c2)cc1
measurement.unit: %
observed.measurement: 2.46

compound: NS(=O)(=O)c1ccc(N/N=C2\C(=O)Nc3ccc(-c4cnco4)cc32)cc1
measurement.unit: %
observed.measurement: 6.57

compound: COc1ccc(-c2ccc3c(NC(=O)C4CC4)n[nH]c3n2)cc1
measurement.unit: %
observed.measurement: 1.65

compound: COc1cc(Nc2ncc3c(C)nc(-c4cccc(Oc5ccccc5)c4)n3n2)cc(OC)c1OC
measurement.unit: %
observed.measurement: 0.68

compound: CN1CCN(CCCNc2nc3ccc(Oc4ccc(NC(=O)Nc5cc(C(F)(F)F)ccc5F)cc4)cc3[nH]2)CC1
measurement.unit: %
observed.measurement: -3.04

compound: CCS(=O)(=O)c1ccc(OC)c(Nc2ncc(-c3cccc(-c4ccccc4F)c3)o2)c1
measurement.unit: %
observed.measurement: 0.53

compound: CN(C)c1ccc2c(c1)/C(=C/Nc1ccc(S(N)(=O)=O)cc1)C(=O)N2
measurement.unit: %
observed.measurement: 11.3

compound: Cc1ccc(C(=O)NC2CCC2)cc1-c1ccc(C(=O)NCC2CC2)cc1
measurement.unit: %
observed.measurement: 2.48

compound: Cc1nnc(-c2ccc(C)c(-c3ccc(C(=O)NCc4ccc(Cl)cc4)cc3)c2)o1
measurement.unit: %
observed.measurement: -0.53

compound: CCc1nccc2c1nc(-c1nonc1N)n2CC
measurement.unit: %
observed.measurement: 1.93

compound: Nc1nccc(-c2c(-c3ccc(F)cc3)ncn2C2CCC(O)CC2)n1 (stereo not given)
measurement.unit: %
observed.measurement: 0.24

compound: O=C(Nc1n[nH]c2cc(-c3cc(F)ccc3F)ccc12)C1CC1
measurement.unit: %
observed.measurement: 1.96

compound: c1ccc(Oc2ccc(Nc3ncc(-c4ccccc4)o3)cc2)cc1
measurement.unit: %
observed.measurement: 1.05

compound: CNC(=O)c1cncc(/C=C/c2c(C)cccc2C)c1
measurement.unit: %
observed.measurement: -2.46

compound: C/C(Nc1ccc(S(N)(=O)=O)cc1)=C1/C(=O)Nc2ccccc21
measurement.unit: %
observed.measurement: 3.5

###

Biological target: Tyrosine-protein kinase Fgr (Homo sapiens) (UniProt P09769)
Sequence (P09769 2-529 limits assumed): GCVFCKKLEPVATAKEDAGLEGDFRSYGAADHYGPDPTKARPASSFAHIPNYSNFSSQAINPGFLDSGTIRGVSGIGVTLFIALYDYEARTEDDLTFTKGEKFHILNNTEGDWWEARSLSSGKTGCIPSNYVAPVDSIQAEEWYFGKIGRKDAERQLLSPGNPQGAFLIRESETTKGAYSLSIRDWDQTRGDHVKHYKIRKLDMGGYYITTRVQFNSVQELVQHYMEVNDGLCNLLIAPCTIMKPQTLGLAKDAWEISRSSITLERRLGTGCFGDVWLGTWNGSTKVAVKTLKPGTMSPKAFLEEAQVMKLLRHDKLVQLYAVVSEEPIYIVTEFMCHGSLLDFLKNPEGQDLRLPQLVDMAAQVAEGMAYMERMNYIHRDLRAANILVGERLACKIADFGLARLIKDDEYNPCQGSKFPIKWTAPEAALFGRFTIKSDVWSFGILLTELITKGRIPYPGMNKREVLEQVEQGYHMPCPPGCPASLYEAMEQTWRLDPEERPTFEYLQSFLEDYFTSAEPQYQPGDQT
Conditions: at 1 µM
Satisfied means recorded inhibition is 10% or above; Not satisfied means it is below 10%.

structure.string: C[C@@H](Oc1cc(-n2cnc3ccc(OCC4CCN(C)CC4)cc32)sc1C(N)=O)c1ccccc1Cl
system.under.test: Tyrosine-protein kinase Fgr (Homo sapiens) (UniProt P09769)
class.label: Satisfied

structure.string: CN(C)c1ccc2c(c1)/C(=C/Nc1ccc(S(N)(=O)=O)cc1)C(=O)N2
system.under.test: Tyrosine-protein kinase Fgr (Homo sapiens) (UniProt P09769)
class.label: Satisfied

structure.string: COc1ccc2cc(-c3c(-c4ccncc4)nc(-c4ccc(S(C)(=O)=O)cc4C)n3C)ccc2c1
system.under.test: Tyrosine-protein kinase Fgr (Homo sapiens) (UniProt P09769)
class.label: Not satisfied

structure.string: O=C1Nc2ccccc2/C1=C/Nc1ccc(-n2cncn2)cc1
system.under.test: Tyrosine-protein kinase Fgr (Homo sapiens) (UniProt P09769)
class.label: Satisfied

structure.string: C#Cc1cccc(Nc2ncnc3ccc(OCCCCNCCS(C)(=O)=O)cc23)c1
system.under.test: Tyrosine-protein kinase Fgr (Homo sapiens) (UniProt P09769)
class.label: Satisfied

structure.string: CN(c1ccc(NC(=O)Nc2c(Cl)cccc2Cl)cc1)c1ccnc(Nc2cccc(CS(C)(=O)=O)c2)n1
system.under.test: Tyrosine-protein kinase Fgr (Homo sapiens) (UniProt P09769)
class.label: Satisfied

structure.string: O=C(Nc1n[nH]c2nc(-c3ccc(O)cc3)c(Br)cc12)C1CC1
system.under.test: Tyrosine-protein kinase Fgr (Homo sapiens) (UniProt P09769)
class.label: Satisfied

structure.string: C[C@@H](Oc1cc(-n2cnc3ccc(OC4CCN(C)CC4)cc32)sc1C(N)=O)c1ccccc1Cl
system.under.test: Tyrosine-protein kinase Fgr (Homo sapiens) (UniProt P09769)
class.label: Not satisfied

structure.string: COc1cccc(/C=N/Nc2ncnc3c2cnn3-c2cccc(OC)c2)c1
system.under.test: Tyrosine-protein kinase Fgr (Homo sapiens) (UniProt P09769)
class.label: Not satisfied

structure.string: NC(=O)Cc1ccccc1Oc1nccc(-c2c(-c3ccc(F)cc3)ncn2C2CCNCC2)n1
system.under.test: Tyrosine-protein kinase Fgr (Homo sapiens) (UniProt P09769)
class.label: Not satisfied

structure.string: Cc1ccc(C(=O)NC(C)C)cc1-c1ccc(C(=O)NCC2CC2)cc1
system.under.test: Tyrosine-protein kinase Fgr (Homo sapiens) (UniProt P09769)
class.label: Not satisfied

structure.string: COc1ccc2ncn(-c3cc(O[C@H](C)c4ccccc4Cl)c(C(N)=O)s3)c2c1
system.under.test: Tyrosine-protein kinase Fgr (Homo sapiens) (UniProt P09769)
class.label: Not satisfied

structure.string: N#Cc1ccc(Oc2nccc(-c3c(-c4ccc(F)cc4)ncn3C3CCNCC3)n2)cc1
system.under.test: Tyrosine-protein kinase Fgr (Homo sapiens) (UniProt P09769);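 note: value reported as mean kinase inhibition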
class.label: Not satisfied
